Biological target: TMD5 (coumarin-labelled) (Epstein-Barr virus)
Test: FRET assay
Type: binding
No end group written: not given here.
quantity_kind: Kd (µM)
All answers are understood in µM, so give the number only.

Incoming: Value lookup for Kd; key = KKKKWWKLWYFLVWFLDLIILILLLWWKKKK [anti-TMD5]
Outgoing: 0.04
